VALUE_TYPE: melting point

MOLECULE | melting point
CC1(COCc2ccc(OCc3ccccc3)cc2)CCn2cc([N+](=O)[O-])nc2O1 (centres unmarked) [Compound 54] | 109 to 111 °C
CC1(COc2ccc(-c3ccc(F)cc3)cn2)Cn2cc([N+](=O)[O-])nc2O1 (centres unmarked) | 162 to 164 °C
O=[N+]([O-])c1cn2c(n1)OCC(COc1ccc(-c3ccc(F)cc3)nc1)C2 (centres unmarked) | 214 to 216 °C
CC1(COc2ccc(-c3ccc(C(F)(F)F)cc3)cc2)Cn2cc([N+](=O)[O-])nc2O1 (centres unmarked) [Compound 11] | 219 to 220 °C

Record request: melting point value, item O=[N+]([O-])c1cn2c(n1)OCC(COc1ccc(-c3ccc(F)cc3)cc1)C2 (centres unmarked) 201 to 203 °C

---

melting point by entry:

Reference set (8 entries):
COMPOUND | melting point
O=[N+]([O-])c1cn2c(n1)OC(COCc1ccc(OC(F)(F)F)cc1)C2 (centres unmarked) | 134 to 135 °C
O=[N+]([O-])c1cn2c(n1)OCC(COc1ccc(-c3ccc(C(F)(F)F)cc3)cc1)C2 (centres unmarked) | 218 to 221 °C
O=[N+]([O-])c1cn2c(n1)OC(COCc1ccc(OCc3ccccc3)cc1)C2 (centres unmarked) | 123 to 124 °C
O=[N+]([O-])c1cn2c(n1)OCC(COc1ccc(-c3ccc(C(F)(F)F)cc3)nc1)C2 (centres unmarked) | 233 to 235 °C
CC1(COc2ccc(-c3ccc(OC(F)(F)F)cc3)cn2)Cn2cc([N+](=O)[O-])nc2O1 (centres unmarked) | 172 to 174 °C
O=[N+]([O-])c1cn2c(n1)OC(COCc1cccc(-c3ccc(OC(F)(F)F)cc3)c1)CC2 (centres unmarked) | 117 to 119 °C
CC1(COc2ccc(-c3ccc(C(F)(F)F)cc3)cn2)CCn2cc([N+](=O)[O-])nc2O1 (centres unmarked) | 212 to 214 °C
O=[N+]([O-])c1cn2c(n1)OCC(COc1ccc(-c3ccc(OC(F)(F)F)cc3)nc1)C2 (centres unmarked) | 180 to 181 °C

Which measured melting point value corresponds to O=[N+]([O-])c1cn2c(n1)OCC(COCc1ccc(OCc3ccccc3)cc1)C2 (centres unmarked) ? 150 to 151 °C

Another compound to check: O=[N+]([O-])c1cn2c(n1)OC(COCc1ccc(-c3ccc(OC(F)(F)F)cc3)cc1)CC2 (centres unmarked) 159 to 161 °C

One more compound: CC1(COc2ccc(-c3ccc(OC(F)(F)F)cc3)nc2)Cn2cc([N+](=O)[O-])nc2O1 (centres unmarked) 209 to 211 °C

Same lookup for CC1(COc2ccc(-c3ccc(F)cc3)cc2)CCn2cc([N+](=O)[O-])nc2O1 (centres unmarked) , please. 160 to 162 °C

And the next one, CC1(COc2ccc(-c3ccc(OC(F)(F)F)cc3)cc2)Cn2cc([N+](=O)[O-])nc2O1 (centres unmarked) ? 209 to 211 °C

Item: CC1(COCc2ccc(OC(F)(F)F)cc2)Cn2cc([N+](=O)[O-])nc2O1 (centres unmarked) 110 to 111 °C

---

Test system: Trypanosoma cruzi amastigotes (Tulahuen C2C4 strain)
Assay: Trypanosoma cruzi assay in infected L-6 cells
Type: cell-based
Settings: L6, 96 h incubation, read-out: IC50 T. cruzi
Procedure: (c) Antiprotozoal screening. Compounds were evaluated for their activities against both Trypanosoma cruzi amastigotes and Leishmania donovani amastigotes (free or encapsulated in macrophages), according to the following protocols: (i) Trypanosoma cruzi assay. L-6 cells (2×10^3) in medium (100 μL of RPMI 1640 supplemented with 2 mM L-glutamine plus 10% heat inactivated fetal calf serum) were seeded in 96-well microtitre plates (Costar™) and incubated at 37° C. (5% CO2) for 1d. […]
VALUE_TYPE: IC50 (µg/mL)
Dear colleague, please return just the value in µg/mL, with no unit written.

MOLECULE | VALUE_TYPE | VAL
O=[N+]([O-])c1cn2c(n1)OC(COCc1cccc(OC(F)(F)F)c1)CC2 (stereo not drawn) | IC50 | 1.1
CC1(COc2ccc(-c3ccc(C#N)cc3)cc2)Cn2cc([N+](=O)[O-])nc2O1 (stereo not drawn) | IC50 | 1.2

# query: IC50 of entry COc1ccc(-c2ccc(OCC3(C)Cn4cc([N+](=O)[O-])nc4O3)cc2)cn1 (stereo not drawn) 4.1
